The following compounds are shown together with reported MIC values.
test system: Erysipelothrix insidiosa
quantity: MIC (mg/L)

{"columns": ["compound", "quantity", "unit_abbreviation", "quantitative_readout"],
 "data": [
  ["Clc1ccc(COC(C[n+]2ccn(CCNc3c(Cl)cccc3Cl)c2)c2ccc(Cl)cc2Cl)c(Cl)c1.O.[Br-] (stereo not shown)", "MIC", "mg/L", 1],
  ["O=C(C[n+]1ccn(CC(OCc2c(Cl)cccc2Cl)c2ccc(Cl)cc2Cl)c1)Nc1ccc(F)cc1 (stereo not shown)", "MIC", "mg/L", 1],
  ["Clc1ccc(COC(Cn2cc[n+](CCc3ccccc3)c2)c2ccc(Cl)cc2Cl)c(Cl)c1.[Br-] (stereo not shown)", "MIC", "mg/L", 1],
  ["Cc1ccccc1NC(=O)C[n+]1ccn(CC(OCc2ccc(Cl)cc2Cl)c2ccc(Cl)cc2)c1 (stereo not shown) [C6H4pCl/CH2C6H32,4(Cl)2/CH2CONHC6H4oCH3, hydrate]", "MIC", "mg/L", 1],
  ["CCCCOC(Cn1cc[n+](CC(=O)Nc2ccc(F)cc2)c1)c1ccccc1Cl (stereo not shown)", "MIC", "mg/L", 10],
  ["O=C(C[n+]1ccn(CC(OCc2ccc(Cl)cc2Cl)c2ccc(Cl)cc2Cl)c1)Nc1ccc(Cl)cc1 (stereo not shown) [CH2CONHC6H4p(Cl), hydrate]", "MIC", "mg/L", 1],
  ["Fc1ccc(CC[n+]2ccn(CC(OCc3ccc(Cl)cc3Cl)c3ccc(Cl)cc3Cl)c2)cc1.O.[Br-] (stereo not shown)", "MIC", "mg/L", 10]
]}

----------
system: Trichophyton rubrum
The following molecules are shown together with reported MIC values.
quantity: MIC (µg/mL)

{"columns": ["molecule", "quantitative_readout"],
 "data": [
  ["CC(C(=O)Nc1ccccc1Cl)[n+]1ccn(CC(OCc2ccc(Cl)cc2Cl)c2ccc(Cl)cc2Cl)c1 (stereo not drawn)", 1],
  ["O=C(C[n+]1ccn(CC(OCc2ccc(Cl)cc2Cl)c2ccc(Cl)cc2Cl)c1)c1ccc(Cl)s1 (stereo not drawn)", 1],
  ["OC(C[n+]1ccn(CC(OCc2ccc(Cl)cc2Cl)c2ccc(Cl)cc2Cl)c1)c1ccc(Cl)cc1Cl.[Cl-] (stereo not drawn) [CH2CHOHC6H32,4(Cl)2]", 1],
  ["Cc1cccc(C)c1OCC[n+]1ccn(CC(OCc2ccc(Cl)cc2Cl)c2ccc(Cl)cc2Cl)c1.[Br-] (stereo not drawn) [(CH2)2OC6H32,6(CH3)2]", 10],
  ["O=C(C[n+]1ccn(CC(OCc2ccc(Cl)cc2Cl)c2ccc(Cl)cc2Cl)c1)c1cccs1 (stereo not drawn)", 1],
  ["O=C(C[n+]1ccn(CC(OCc2ccc(Cl)cc2)c2ccc(Cl)cc2)c1)c1ccc(F)cc1 (stereo not drawn) [pClC6H4/CH2C6H4pCl/CH2COC6H4pF]", 10],
  ["CCCCOC(Cn1cc[n+](CC(=O)Nc2ccc(F)cc2)c1)c1ccc(Cl)cc1Cl (stereo not drawn) [2,4(Cl)2C6H3/nC4H9/CH2CONHC6H4pF]", 10],
  ["CCCCCCCC[n+]1ccn(CC(OCc2ccc(Cl)cc2Cl)c2ccc(Cl)cc2Cl)c1.[Br-] (stereo not drawn) [nC8H17]", 1],
  ["Cc1ccc(C[n+]2ccn(CC(OCc3ccc(Cl)cc3Cl)c3ccc(Cl)cc3Cl)c2)cc1C.[Cl-] (stereo not drawn) [CH2C6H33,4(CH3)2]", 1],
  ["O=C(CCn1cc[n+](CC(OCc2ccc(Cl)cc2Cl)c2ccc(Cl)cc2Cl)c1)c1ccc(Br)cc1.[Cl-] (stereo not drawn) [(CH2)2COC6H4pBr]", 1],
  ["OC(C[n+]1ccn(CC(OCc2ccc(Cl)cc2Cl)c2ccc(Cl)cc2Cl)c1)c1ccc(Cl)cc1 (stereo not drawn)", 1],
  ["O=C(C[n+]1ccn(CC(OCc2ccc(Cl)cc2Cl)c2ccc(Cl)cc2)c1)c1ccc(F)cc1.[Cl-] (stereo not drawn) [pClC6H4/CH2C6H32,4(Cl)2/CH2COC6H4pF]", 10],
  ["Cc1ccc(OCC[n+]2ccn(CC(OCc3ccc(Cl)cc3Cl)c3ccc(Cl)cc3Cl)c2)cc1 (stereo not drawn) [(CH2)2OC6H4pCH3]", 1],
  ["Fc1ccc(C(c2ccc(Cl)cc2)[n+]2ccn(CC(OCc3ccc(Cl)cc3Cl)c3ccc(Cl)cc3Cl)c2)cc1 (stereo not drawn) [drawing 61]", 1],
  ["Clc1ccc(COC(C[n+]2ccn(CC=Cc3ccccc3)c2)c2ccc(Cl)cc2Cl)c(Cl)c1.[Cl-] (stereo not drawn) [CH2CHCHC6H5]", 1]
]}
